Target Or System: NF-κB
Method Description: NF-κB-bla THP-1 β-lactamase reporter assay
Type: cell-based, human
Experimental Conditions: compounds increased NF-κB activity; read-out: IC50 of compounds that increased NF-κB activity
Metric Name: IC50 (µM)
Value expressed in µM; do not type the unit.

C[C@@]1(O)CC[C@@]2(C)[C@@H](CC[C@@H]3[C@@H]2CC[C@@]2(C)[C@H]3CC[C@]2(C)O)C1 [3β,17α-dimethylandrostane-3α,17β-diol]    0.04

Turning to the following compound.
Form field IC50 for item C[C@]12CC[C@H](O)CC1=C[C@@H](O)[C@@H]1[C@@H]2CC[C@]2(C)C(=O)[C@H](O)C[C@@H]12 [androst-5-ene-3β,7α,16α-triol-17-one] on NF-κB: 0.0013

----------
Entries and their pIC50
Target Or System: NF-κB
Method Description: NF-κB-bla THP-1 β-lactamase reporter assay
Assay type: cell-based, human
Experimental Conditions: after LPS stimulation; 50% of the maximum inhibition the compound can induce; averages of 2-4 assays; read-out: IC50 for inhibition of NF-κB activation
pIC50: −log10 of the molar value.

The recorded pIC50 for CC12CCC(O)CC1=CC(O)C1C2CCC2(C)C1CCC2(O)C(F)(F)F (centres unmarked) is < 5.00

Item: CC12CCC(O)CC1=CC(=O)C1C2CCC2(C)C1CCC2(C)O (centres unmarked) | pIC50: < 5.00

----------
Target Or System: NF-κB
Method Description: NF-κB-bla THP-1 β-lactamase reporter assay
Type: cell-based, human
Experimental Conditions: anti-inflammatory activity in this protocol; read-out: IC50
Label fulfilled when IC50 is strictly below 3 nM; at or above that, label not fulfilled.

Solved entries:
C[C@]12CCCCC1=C[C@H](O)[C@@H]1[C@@H]2CC[C@]2(C)C(=O)[C@@H](F)C[C@@H]12    fulfilled
C[C@]12CC[C@H]3[C@@H](CC=C4C[C@@H](O)CC[C@@]43C)[C@@H]1CC[C@@H]2OC(=O)CCC(=O)O    fulfilled
CC12CCC(O)(C(F)(F)C(F)(F)F)C=C1CCC1C2CCC2(C)C(O)CCC12 (centres unmarked)    not fulfilled
CC12CCC(O)CC1CCC1C2CCC2(C)C1CCC2(O)C(F)(F)F (centres unmarked)    not fulfilled

Ask | I wonder whether C[C@]12CC[C@H]3[C@@H](CC=C4C[C@](O)(C(F)(F)C(F)(F)F)CC[C@@]43C)[C@@H]1CC[C@@H]2O has IC50 below 3 nM. Can you tell?
Reply | not fulfilled

----------
Method Description: metabolic stability in liver microsomes: mouse
Experimental Conditions: 10 min
Metric Name: parent remaining mouse microsomes

C[C@]12CC[C@H]3[C@@H]([C@H](O)C=C4C[C@H](O)CC[C@@]43C)[C@@H]1C[C@@H](O)[C@@H]2O    100% (10 min)

The compound identified as C[C@]12CC[C@H]3[C@@H]([C@@H](O)C=C4C[C@@H](O)CC[C@@]43C)[C@@H]1CC[C@@H]2O registered its parent remaining mouse microsomes at 89% (10 min)

// recorded parent remaining mouse microsomes for C[C@]12CC[C@H]3[C@@H]([C@@H](O)C=C4C[C@@H](O)CC[C@@]43C)[C@@H]1C[C@@H](O)[C@@H]2O : 100% (10 min)

----------
Property: parent remaining human microsomes; scope: individual compounds
Method Description: metabolic stability in liver microsomes: human
Experimental Conditions: 10 min

Sample answers from the record:
C[C@]12CC[C@H]3[C@@H]([C@@H](O)C=C4C[C@@H](O)CC[C@@]43C)[C@@H]1C[C@@H](O)[C@@H]2O    100% (10 min)
C[C@]12CC[C@H]3[C@@H]([C@@H](O)C=C4C[C@H](O)CC[C@@]43C)[C@@H]1C[C@@H](O)[C@@H]2O    100% (10 min)
C[C@]12CC[C@H]3[C@@H](CC=C4C[C@@H](O)CC[C@@]43C)[C@@H]1CC[C@@H]2O    39% (10 min)
C[C@]12CC[C@H]3[C@@H]([C@H](O)C=C4C[C@H](O)CC[C@@]43C)[C@@H]1C[C@@H](O)[C@@H]2O    100% (10 min)

Shift focus to the following entry.
Item: C[C@]12CC[C@H]3[C@@H]([C@H](O)C=C4C[C@@H](O)CC[C@@]43C)[C@@H]1C[C@@H](O)[C@@H]2O | parent remaining human microsomes: 100% (10 min)

----------
Test system: NF-κB
Method Description: NF-κB-bla THP-1 β-lactamase reporter assay
Format: cell-based, human
Experimental Conditions: this protocol
maximum NF-κB inhibition for assorted compounds
Answer format: numeric, % implied, no suffix.

Some compounds with recorded maximum NF-κB inhibition:
C[C@]12CC[C@H]3[C@@H](CC=C4C[C@](O)(C(F)(F)C(F)(F)F)CC[C@@]43C)[C@@H]1CC[C@@H]2O    50
CC(=O)O[C@H]1CC[C@@]2(C)C(=C[C@H](O)[C@H]3[C@@H]4CC[C@H](O)[C@@]4(C)CC(=O)[C@@H]32)C1    65
C[C@]12CC[C@H](O)C[C@@H]1CC[C@@H]1[C@@H]2CC[C@]2(C)C(=O)[C@H](Br)C[C@@H]12 [16α-bromoepiandrosterone]    100
C[C@]12CC[C@H](O)C[C@@H]1CC[C@@H]1[C@@H]2CC[C@]2(C)C(=O)[C@@H](Br)C[C@@H]12 [16β-bromoepiandrosterone]    100
C[C@@H]1C[C@H]2[C@@H]3CCC4=CC(=O)C=C[C@]4(C)[C@@]3(F)[C@@H](O)C[C@]2(C)[C@@]1(O)C(=O)CO [dexamethasone, reference compound]    100

Short answer for C#C[C@]1(O)CC[C@H]2[C@@H]3CCC4=CC(=O)CC[C@]4(C)[C@H]3CC[C@@]21C [17α-ethynylandrost-4-ene-3-one-17β-ol] : maximum NF-κB inhibition was 80

----------
parent remaining mouse microsomes overview
Method Description: metabolic stability in liver microsomes: mouse
Experimental Conditions: 10 min

Example cases with answers are listed next.
C[C@]12CC[C@H]3[C@@H](CC=C4C[C@@H](O)CC[C@@]43C)[C@@H]1CC[C@@H]2O    25% (10 min)
C[C@]12CC[C@H]3[C@@H]([C@@H](O)C=C4C[C@H](O)CC[C@@]43C)[C@@H]1C[C@@H](O)[C@@H]2O    100% (10 min)

Looking up C[C@]12CC[C@H]3[C@@H]([C@H](O)C=C4C[C@@H](O)CC[C@@]43C)[C@@H]1C[C@@H](O)[C@@H]2O , I see its parent remaining mouse microsomes listed as 100% (10 min)
